Would you kindly list melting point for each of these compounds?

These recorded examples may help you get a feel for the data.
* COc1ccccc1C1(Cl)C(=O)Nc2ccc(Cl)cc21 (stereo not given) | 220 to 224 °C
* C[C@H]1CN(c2nc(-c3ccccc3)nc3ccccc23)[C@@H](C)CN1c1ccccn1 (relative stereo) | 68 to 70 °C
* CN1CC(CCN2CCN(c3ccccn3)CC2)OC1=O (stereo not given) | 108 to 109 °C

Need melting point for each of these compounds.
1. CCOC(=O)c1ccc(C(C(N)=O)C(C)c2cc(N)ccc2N2CCCCC2)cc1 (stereo not given)
2. O=C1NC(=O)C(=Cc2ccccc2)C(=O)N1

Reply |
1. 148 to 150 °C
2. > 258 °C

---

Please provide measured melting point for the entries that follow.

Examples from the recorded data:
- COc1ccc2nccc(CCC[C@@H]3CCN(CCCc4cccc(F)c4)C[C@@H]3C(=O)O)c2c1: 206 °C
- CC(C)(C)c1cc(N)n(-c2cccc(Oc3ccccc3)c2)n1: 108 to 110 °C
- Cc1cc(-c2csc(-c3cccc(C(=O)O)c3)n2)c(C)s1: 155 to 156 °C
- COC12CC(C)(C)C(O1)C(=O)CC2C (stereo not given): 38 to 39 °C
- Cn1c2ccccc2c(=O)n2nc(C(=O)O)cc12: 265 °C
- CCOC(=O)/C=C/C1N(C(C)C)C(=O)c2ccccc2C1(O)c1ccc(F)cc1 (stereo not given): 220 to 221 °C
- CN(Cc1ccc(NC(=O)C2=Cc3cc(Br)ccc3N(C=O)CC2)cc1)C1CCOCC1: 173 to 175 °C
- CCCCNC(=O)[C@@H](C[C@H](O)[C@H](CC1CCCCC1)NC(=O)[C@H](Cc1cscn1)NC(=O)[C@@H](CC(=O)N1CCOCC1)Cc1ccccc1)C(C)(C)O: 92 to 95 °C

Below are some compounds; for each one, tell me its melting point.
1. Cn1cc(-c2cccc(C(F)(F)F)c2)c(=O)c(-c2ccc(Cl)c(Cl)c2)c1
2. O=C1c2ccccc2C(=O)N1CCc1ccc(OC2c3ccccc3CCc3ccccc32)cc1
3. COc1ccc(-c2ccc3c(c2)C(C)(C)OC(=O)N3)cc1F
4. COc1cc(C(=O)CS(=O)(=O)N(C)C)c(N)cc1Cl
5. CN(C)S(=O)(=O)c1cc2c(c(Cl)c1Cl)OC(C(=O)O)C2 (stereo not given)
6. CC(C)(C)C1OCCO1

Reply |
1. 109 to 112 °C
2. 205 to 207 °C
3. 210 to 211 °C
4. 59 to 62 °C
5. 154 °C
6. 86 °C

For each entry beneath this line, provide reported melting point.
1. CCCNCC(O)c1cccc(Cl)c1 (stereo not given)
2. CC1CCN(C=Nc2ccc3c(c2)C(=O)c2ccc(N=CN4CCC(C)CC4)cc2C3=O)CC1
3. COC(=O)CCC1(CCC(=O)OC)c2cc(N(c3ccccc3)c3cccc(C)c3)ccc2-c2ccc(N(c3ccccc3)c3cccc(C)c3)cc21

Reply |
1: 69.5 to 71 °C; 2: 229 to 233 °C; 3: 159 to 160 °C

Below are 5 compounds. Give each one its melting point.
1. Cc1cc(C)c2c(c1)C=C(C(=O)O)CC2
2. Cc1ccc(/C=C/C(=O)O)n1Cc1ccc(Cl)cc1Cl
3. C[C@H]([C@](O)(Cn1cncn1)c1ccc(F)cc1F)S(=O)(=O)N1CCN(c2ccc(-n3cnn(CC(F)(F)F)c3=O)cc2)CC1
4. COc1ccnc(CSc2nc3cc4c(cc3[nH]2)OC(F)C(F)(F)O4)c1 (stereo not given)
5. CSc1cccc2c3c(n(Cc4ccc(Cl)cc4)c12)C(CC(=O)O)CCC3 (stereo not given)

Reply |
1: 194 to 195 °C; 2: 181 to 182 °C; 3: 237 to 239 °C; 4: 139 to 140 °C; 5: 141 to 142 °C
